Every entry's value here was drawn from patent US20040018971A1.

Here, each record is paired with measured IC50 data.
- ASSAYED_TARGET: T1, HLA-A*0101 (human)
- T1 construct: also called HLA-A1
- TEST_DETAILS: inhibition of 125I-labeled probe peptide binding to purified HLA-A*0101, gel filtration

{"columns": ["BINDER", "IC50 (nM)"],
 "data": [
  ["EADQCVACAHY (HER2/neu peptide) [Her2/neu.580]", 250],
  ["VTACPYNY (HER2/neu peptide) [Her2/neu.296]", 250],
  ["PTDCCHEQCAA (HER2/neu peptide, 11-mer) [Her2/neu.232]", 58],
  ["VFETLEEITGY (HER2/neu peptide) [Her2/neu.399]", 5560],
  ["GTDLFEDNY (HER2/neu analog peptide) [Her2/neu.104.D3]", 0.9],
  ["GTDMKLRLPY (HER2/neu analog peptide) [Her2/neu.28.Y10]", 50],
  ["ATCVTACPY (HER2/neu analog peptide) [Her2/neu.293.T2]", 49],
  ["ASCVTACPY (HER2/neu peptide, 9-mer) [Her2/neu.293]", 455]
]}
